Items are presented alongside their recorded Median.
target: T1, GPC3 expressed on hepatoma cell line HepG2 (human, UniProt P51654 25-554); experiment: flow cytometry on HepG2 cells, 1 µg antibody, PE anti-mouse IgG secondary; median fluorescence
T1 construct: whole, on cells; also called GPC3-expressing tumor cells (HepG2); cells expressing GPC3
T1 sequence (P51654 25-554 limits assumed): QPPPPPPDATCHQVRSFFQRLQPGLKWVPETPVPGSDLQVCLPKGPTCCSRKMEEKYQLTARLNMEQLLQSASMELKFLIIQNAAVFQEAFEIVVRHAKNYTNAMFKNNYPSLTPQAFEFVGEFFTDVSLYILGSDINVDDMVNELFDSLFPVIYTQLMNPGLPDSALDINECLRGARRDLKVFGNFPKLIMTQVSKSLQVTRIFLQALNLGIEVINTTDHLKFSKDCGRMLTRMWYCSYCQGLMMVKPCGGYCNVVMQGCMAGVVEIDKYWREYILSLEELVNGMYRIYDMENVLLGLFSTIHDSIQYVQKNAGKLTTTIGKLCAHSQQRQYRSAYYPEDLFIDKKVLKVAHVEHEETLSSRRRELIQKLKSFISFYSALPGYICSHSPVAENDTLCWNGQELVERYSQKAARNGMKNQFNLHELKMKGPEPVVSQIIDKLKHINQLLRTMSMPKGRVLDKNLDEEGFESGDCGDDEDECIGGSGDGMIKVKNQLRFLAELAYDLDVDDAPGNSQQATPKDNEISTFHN
# print the numeric value only

Worked set:
# BINDER, EXPERIMENTAL VALUE
records = [
    ("1A8 antibody (antibody, V domains shown, Mouse hybridoma monoclonal antibody, detected with anti-mouse IgG) VH: QVQLQQPGSELVRPGASVKLSCKASGYTFTSYWMHWVKQRHGQGLEWIGNIYPGSGSTNYDEKFKSKGTLTVDTSSRTAYMHLSSLTSEDSAVYYCTRGHYDYAMDYWGQGTSVTVSS VL: DIVMTQSPSSLSASLGDTITITCHASQNINVWLSWYQQKPGNIPKLLIYKTSNLHTGVPSRFSGSGSGTGFTLTISSLQPEDIATYYCQQGQSYPWTFGGGTKLEIK", 29000),
    ("7C6 antibody (antibody, V domains shown, Mouse hybridoma monoclonal antibody, detected with anti-mouse IgG) VH: QVQLQQPGAELVKPGASVKLSCKASGYTFTTYYMYWVKQRPGQGLEWIGEINPSNGGTNFNEKFKSKATLTVDKSSSTAYMQLSSLTSEDSAVYYCTTFAYWGQGTLVTVSA VL: DIVMTQSPSSLSASLGGKVTITCKASQDINKYIVWYQHKPGKGPRLLIHYTSILQPGIPSRFSGSGSGRDYSFSISNLEPEDIATYYCLQYDNLWTFGGGTKLEIK", 61800),
]

Query: Give Median for 8B2 antibody (antibody, V domains shown, Mouse hybridoma monoclonal antibody, detected with anti-mouse IgG) VH: QVQLQQPGAELVKPGASVKMSCKASGYTFTSYNMHWVKQTPGQGLEWIGAIYPGNGYTSYNQKFKGKATLTADKSSSTAYMQLSSLTSEDSAVYYCARGGGPFAYWGQGTLVTVSA VL: DIVMTQSHKFMSTSVGDRVSITCKASQDVGTAVAWYQQKPGQSPKLLIYWPSTRHTGVPDRFTGSGSGTDFTLTISNVQSEDLADYFCQQYSSYPFTFGSGTKLEIK
Reply: 31400

Query: Give Median for 10E9 antibody (antibody, V domains shown, Mouse hybridoma monoclonal antibody, detected with anti-mouse IgG; Used as hybridoma culture supernatant in the ELISA) VH: EVQLEESGTVLARPGASVKMSCKASGYTFTSYWMHWIKQRPGQGLEWIGAIYPGNSDTSYNQKFKGKAKLTAVTSTSTAYMELSSLTNEDSAVYYCTRGEYDYVLAYWGQGTLVTVSA VL: DIVMTQSPATLSVTPGDSVSLSCRASQSISNNLHWYQQKSHESPRLLIKFASQSISGIPSRFSGSGSGTDFTLSINSVETEDFGMYFCQQSNSWPHMYTFGGGTKLEIK
Reply: 25200

Query: Give Median for 5E11 antibody (antibody, V domains shown, Mouse hybridoma monoclonal antibody, detected with anti-mouse IgG) VH: QVQLKQSGAELMKPGASVKISCKATGYTFSRYWIEWVKQRPGHGLEWIGEILPGSGSTSYNEKFKGKATFTADTSSNTAYMQLSSLTSEDSAVYYCARSARATYYFDYWGQGTTLTVSS VL: DIQMTQTTSSLSASLGDRVTISCWASQDISNYLNWYQQKPDGTVKLLIYYTSTLHSGVPSRFSGSGSGTDYSLTISNLEQEDIATYFCQQGNALPYTFGGGTKLEIK
Reply: 40200

Measured values drawn from patent US20240018262A1 for this set.
